Data credit: patent US11629201B2

Tested on: PC-3 PIP/flu tumor-bearing mice
protocol.text: Biodistribution studies in PC-3 PIP/flu tumor-bearing mice
test.parameters: 192 h p.i.
Blood by entry:

>  <molecule>
O=C(O)CCC(NC(=O)NC(CCCCNC(=O)C(Cc1ccc2ccccc2c1)NC(=O)C1CCC(CNC(=O)C(CCCCNC(=O)CN2CCN(CC(=O)O)CCN(CC(=O)O)CCN(CC(=O)O)CC2)NC(=O)CCCCCCC(=O)NC(CCCCNC(=O)CCCc2ccc(I)cc2)C(=O)O)CC1)C(=O)O)C(=O)O (stereo not shown) [^177Lu-PSMA-ALB-04, metal not drawn]

>  <Blood, % IA/g>
3.75

$$$$
>  <molecule>
O=C(O)CCC(NC(=O)NC(CCCCNC(=O)C(Cc1ccc2ccccc2c1)NC(=O)C1CCC(CNC(=O)C(CCCCNC(=O)CN2CCN(CC(=O)O)CCN(CC(=O)O)CCN(CC(=O)O)CC2)NC(=O)CC(NC(=O)CC(NC(=O)CCCc2ccc(I)cc2)C(=O)O)C(=O)O)CC1)C(=O)O)C(=O)O (stereo not shown) [^177Lu-PSMA-ALB-05, metal not drawn]

>  <Blood, % IA/g>
1.48

$$$$
>  <molecule>
O=C(O)CCC(NC(=O)NC(CCCCNC(=O)C(Cc1ccc2ccccc2c1)NC(=O)C1CCC(CNC(=O)C(CCCCNC(=O)CCCc2ccc(I)cc2)NC(=O)CN2CCN(CC(=O)O)CCN(CC(=O)O)CCN(CC(=O)O)CC2)CC1)C(=O)O)C(=O)O (stereo not shown) [^177Lu-PSMA-ALB-03, metal not drawn]

>  <Blood, % IA/g>
5.29

$$$$
>  <molecule>
O=C(O)CCC(NC(=O)NC(CCCCNC(=O)C(Cc1ccc2ccccc2c1)NC(=O)C1CCC(n2cc(CC(NC(=O)CN3CCN(CC(=O)O)CCN(CC(=O)O)CCN(CC(=O)O)CC3)C(=O)NC(CCCCNC(=O)CCCc3ccc(I)cc3)C(=O)O)nn2)CC1)C(=O)O)C(=O)O (stereo not shown) [^177Lu-PSMA-ALB-01, metal not drawn]

>  <Blood, % IA/g>
5.21

$$$$

----------
Tested on: PC-3 PIP/flu tumor-bearing mice
protocol.text: Biodistribution studies in PC-3 PIP/flu tumor-bearing mice
test.parameters: 96 h p.i.
measured.attribute: Lung (% IA/g)

>  <compound>
O=C(O)CCC(NC(=O)NC(CCCCNC(=O)C(Cc1ccc2ccccc2c1)NC(=O)C1CCC(CNC(=O)C(CCCCNC(=O)CN2CCN(CC(=O)O)CCN(CC(=O)O)CCN(CC(=O)O)CC2)NC(=O)CC(NC(=O)CC(NC(=O)CCCc2ccc(I)cc2)C(=O)O)C(=O)O)CC1)C(=O)O)C(=O)O (stereo not shown) [^177Lu-PSMA-ALB-05, metal not drawn]

>  <unit.string>
% IA/g

>  <recorded.number>
1.36

$$$$
>  <compound>
O=C(O)CCC(NC(=O)NC(CCCCNC(=O)C(Cc1ccc2ccccc2c1)NC(=O)C1CCC(CNC(=O)C(CCCCNC(=O)CN2CCN(CC(=O)O)CCN(CC(=O)O)CCN(CC(=O)O)CC2)NC(=O)CCCCCCC(=O)NC(CCCCNC(=O)CCCc2ccc(I)cc2)C(=O)O)CC1)C(=O)O)C(=O)O (stereo not shown) [^177Lu-PSMA-ALB-04, metal not drawn]

>  <unit.string>
% IA/g

>  <recorded.number>
9.96

$$$$
>  <compound>
O=C(O)CCC(NC(=O)NC(CCCCNC(=O)C(Cc1ccc2ccccc2c1)NC(=O)C1CCC(n2cc(CC(NC(=O)CN3CCN(CC(=O)O)CCN(CC(=O)O)CCN(CC(=O)O)CC3)C(=O)NC(CCCCNC(=O)CCCc3ccc(I)cc3)C(=O)O)nn2)CC1)C(=O)O)C(=O)O (stereo not shown) [^177Lu-PSMA-ALB-01, metal not drawn]

>  <unit.string>
% IA/g

>  <recorded.number>
5.07

$$$$
>  <compound>
O=C(O)CCC(NC(=O)NC(CCCCNC(=O)C(Cc1ccc2ccccc2c1)NC(=O)C1CCC(CNC(=O)C(CCCCNC(=O)CCCc2ccc(I)cc2)NC(=O)CN2CCN(CC(=O)O)CCN(CC(=O)O)CCN(CC(=O)O)CC2)CC1)C(=O)O)C(=O)O (stereo not shown) [^177Lu-PSMA-ALB-03, metal not drawn]

>  <unit.string>
% IA/g

>  <recorded.number>
5.56

$$$$

----------
Tested on: PC-3 PIP/flu tumor-bearing mice
protocol.text: Biodistribution studies in PC-3 PIP/flu tumor-bearing mice
test.parameters: 24 h p.i.; PC-3 PIP tumor
measured.attribute: Tumor-to-kidney

>  <molecule>
O=C(O)CCC(NC(=O)NC(CCCCNC(=O)C(Cc1ccc2ccccc2c1)NC(=O)C1CCC(n2cc(CC(NC(=O)CN3CCN(CC(=O)O)CCN(CC(=O)O)CCN(CC(=O)O)CC3)C(=O)NC(CCCCNC(=O)CCCc3ccc(I)cc3)C(=O)O)nn2)CC1)C(=O)O)C(=O)O (centres unmarked) [^177Lu-PSMA-ALB-01, metal not drawn]

>  <target.entity>
PC-3 PIP/flu tumor-bearing mice

>  <recorded.number>
1.69

$$$$
>  <molecule>
Cc1ccc(CCCC(=O)NCCCCC(NC(=O)CN2CCN(CC(=O)O)CCN(CC(=O)O)CCN(CC(=O)O)CC2)C(=O)NCC2CCC(C(=O)NC(Cc3ccc4ccccc4c3)C(=O)NCCCCC(NC(=O)NC(CCC(=O)O)C(=O)O)C(=O)O)CC2)cc1 (centres unmarked) [^177Lu-PSMA-ALB-06, metal not drawn]

>  <target.entity>
PC-3 PIP/flu tumor-bearing mice

>  <recorded.number>
10.4

$$$$

----------
Entries and their Kidneys values follow.
Tested on: PC-3 PIP/flu tumor-bearing mice
protocol.text: Biodistribution studies in PC-3 PIP/flu tumor-bearing mice
test.parameters: 96 h p.i.
measured.attribute: Kidneys (% IA/g)

>  <compound>
O=C(O)CCC(NC(=O)NC(CCCCNC(=O)C(Cc1ccc2ccccc2c1)NC(=O)C1CCC(CNC(=O)C(CCCCNC(=O)CN2CCN(CC(=O)O)CCN(CC(=O)O)CCN(CC(=O)O)CC2)NC(=O)CCCCCCC(=O)NC(CCCCNC(=O)CCCc2ccc(I)cc2)C(=O)O)CC1)C(=O)O)C(=O)O (stereo not shown) [^177Lu-PSMA-ALB-04, metal not drawn]

>  <measured.attribute>
Kidneys

>  <unit.string>
% IA/g

>  <recorded.number>
15.3

$$$$
>  <compound>
O=C(O)CCC(NC(=O)NC(CCCCNC(=O)C(Cc1ccc2ccccc2c1)NC(=O)C1CCC(n2cc(CC(NC(=O)CN3CCN(CC(=O)O)CCN(CC(=O)O)CCN(CC(=O)O)CC3)C(=O)NC(CCCCNC(=O)CCCc3ccc(I)cc3)C(=O)O)nn2)CC1)C(=O)O)C(=O)O (stereo not shown) [^177Lu-PSMA-ALB-01, metal not drawn]

>  <measured.attribute>
Kidneys

>  <unit.string>
% IA/g

>  <recorded.number>
13.0

$$$$
>  <compound>
O=C(O)CCC(NC(=O)NC(CCCCNC(=O)C(Cc1ccc2ccccc2c1)NC(=O)C1CCC(CNC(=O)C(CCCCNC(=O)CN2CCN(CC(=O)O)CCN(CC(=O)O)CCN(CC(=O)O)CC2)NC(=O)CC(NC(=O)CC(NC(=O)CCCc2ccc(I)cc2)C(=O)O)C(=O)O)CC1)C(=O)O)C(=O)O (stereo not shown) [^177Lu-PSMA-ALB-05, metal not drawn]

>  <measured.attribute>
Kidneys

>  <unit.string>
% IA/g

>  <recorded.number>
6.89

$$$$
>  <compound>
O=C(O)CCC(NC(=O)NC(CCCCNC(=O)C(Cc1ccc2ccccc2c1)NC(=O)C1CCC(CNC(=O)C(CCCCNC(=O)CCCc2ccc(I)cc2)NC(=O)CN2CCN(CC(=O)O)CCN(CC(=O)O)CCN(CC(=O)O)CC2)CC1)C(=O)O)C(=O)O (stereo not shown) [^177Lu-PSMA-ALB-03, metal not drawn]

>  <measured.attribute>
Kidneys

>  <unit.string>
% IA/g

>  <recorded.number>
16.1

$$$$

----------
Tested on: PC-3 PIP/flu tumor-bearing mice
protocol.text: Biodistribution studies in PC-3 PIP/flu tumor-bearing mice
test.parameters: 96 h p.i.

>  <compound>
O=C(O)CCC(NC(=O)NC(CCCCNC(=O)C(Cc1ccc2ccccc2c1)NC(=O)C1CCC(CNC(=O)C(CCCCNC(=O)CCCc2ccc(I)cc2)NC(=O)CN2CCN(CC(=O)O)CCN(CC(=O)O)CCN(CC(=O)O)CC2)CC1)C(=O)O)C(=O)O (stereo not shown) [^177Lu-PSMA-ALB-03, metal not drawn]

>  <PC-3 PIP Tumor / % IA/g>
75.7

$$$$
>  <compound>
O=C(O)CCC(NC(=O)NC(CCCCNC(=O)C(Cc1ccc2ccccc2c1)NC(=O)C1CCC(n2cc(CC(NC(=O)CN3CCN(CC(=O)O)CCN(CC(=O)O)CCN(CC(=O)O)CC3)C(=O)NC(CCCCNC(=O)CCCc3ccc(I)cc3)C(=O)O)nn2)CC1)C(=O)O)C(=O)O (stereo not shown) [^177Lu-PSMA-ALB-01, metal not drawn]

>  <PC-3 PIP Tumor / % IA/g>
62.3

$$$$
>  <compound>
O=C(O)CCC(NC(=O)NC(CCCCNC(=O)C(Cc1ccc2ccccc2c1)NC(=O)C1CCC(CNC(=O)C(CCCCNC(=O)CN2CCN(CC(=O)O)CCN(CC(=O)O)CCN(CC(=O)O)CC2)NC(=O)CCCCCCC(=O)NC(CCCCNC(=O)CCCc2ccc(I)cc2)C(=O)O)CC1)C(=O)O)C(=O)O (stereo not shown) [^177Lu-PSMA-ALB-04, metal not drawn]

>  <PC-3 PIP Tumor / % IA/g>
61.4

$$$$
>  <compound>
O=C(O)CCC(NC(=O)NC(CCCCNC(=O)C(Cc1ccc2ccccc2c1)NC(=O)C1CCC(CNC(=O)C(CCCCNC(=O)CN2CCN(CC(=O)O)CCN(CC(=O)O)CCN(CC(=O)O)CC2)NC(=O)CC(NC(=O)CC(NC(=O)CCCc2ccc(I)cc2)C(=O)O)C(=O)O)CC1)C(=O)O)C(=O)O (stereo not shown) [^177Lu-PSMA-ALB-05, metal not drawn]

>  <PC-3 PIP Tumor / % IA/g>
45.0

$$$$
